IC50 for assorted compounds
- Tested on: ZF4 (fibroblasts) cell line
- Protocol Details: Neutral red, absorbance (NRa), AB/CFDA/NR multiplex, lysosome stability
- Assay type: cell-based, zebrafish (Danio rerio)
- Test Settings: Danio rerio, Fibroblast; NR-abs - ZF4; read-out: IC50
Could you give me the number in µM? Just the number is fine.

Some entries whose results are on file:
Compound: Cc1cc(-n2c(=O)[nH]c(=O)n(C)c2=O)ccc1Oc1ccc(SC(F)(F)F)cc1
IC50 / µM: 49.4
--
Compound: CC1(C)C(C=C(Cl)c2ccc(Cl)cc2)C1C(=O)OC(C#N)c1ccc(F)c(Oc2ccccc2)c1 (stereo not shown)
IC50 / µM: 104
--
Compound: CCCSc1ccc2nc(NC(=O)OC)[nH]c2c1
IC50 / µM: 2.36
--
Compound: COC(=O)Nc1nc2ccc(Sc3ccccc3)cc2[nH]1
IC50 / µM: 1.55
--
Compound: CCC(C)C1OC2(CCC1C)CC1CC(CC=C(C)C(OC3CC(OC)C(OC4CC(OC)C(O)C(C)O4)C(C)O3)C(C)C=CC=C3COC4C(O)C(C)=CC(C(=O)O1)C34O)O2 (stereo not shown)
IC50 / µM: 15.4
--
Compound: CO[C@H]1C[C@H](O[C@H]2[C@H](C)O[C@@H](O[C@@H]3/C(C)=C/C[C@@H]4C[C@@H](C[C@]5(C=C[C@H](C)[C@@H](C6CCCCC6)O5)O4)OC(=O)[C@@H]4C=C(C)[C@@H](O)[C@H]5OC/C(=C\C=C\[C@@H]3C)[C@]54O)C[C@@H]2OC)O[C@@H](C)[C@@H]1O
IC50 / µM: 14.6

Now consider the entry below.
The measured IC50 associated with COC(=O)Nc1nc2ccc([S+]([O-])c3ccccc3)cc2[nH]1 (stereo not shown) reads 58.6
